Conditions: 308.15 K; 101 kPa; Liquid
measure: viscosity (mPa·s)
Write the answer as a number in mPa·s, unit excluded.

### Prompt Give viscosity for the following molecule: CNC(C)=O [N-methylacetamide]
### Response 3.312

### Prompt Give viscosity for the following molecule: ClC(Cl)C(Cl)Cl [1,1,2,2-tetrachloroethane]
### Response 1.334

### Prompt Give viscosity for the following molecule: ClC(Cl)=C(Cl)Cl [tetrachloroethene]
### Response 0.723

### Prompt Give viscosity for the following molecule: ClCC(Cl)Cl [1,1,2-trichloroethane]
### Response 0.903

### Prompt Give viscosity for the following molecule: ClCCCl [1,2-dichloroethane]
### Response 0.646

### Prompt Give viscosity for the following molecule: ClC=C(Cl)Cl [trichloroethene]
### Response 0.46

Data provenance is the NIST ThermoML archive (doi:10.1016/j.jct.2006.06.009).
